Assay: protein stability index of a GFP-peptide fusion (yeast GPS) (PSI 1-4); higher = more stable; sorted into four equal gates, so the index is relative within each strain
Conditions: san1∆
ENDPOINT NAME: protein stability index
Number only, no unit.

Consider the reported protein stability index for these sequences:
EELVSLAVFLFDIYNRD [YJL039C/NUP192] = 1.41
RNNVMLLIATNLKEYNK [SRB8] = 2.74
LTHVDLIEKFLRYNPLE [RPB10] = 3.23
LAKYRDAGKIDKHLYHV [RPL19A] = 1.27
LAQTLKLWRKIARLYSC [RRI2] = 1.34

Fill in: protein stability index of IDGCVKIGDLGLARKFH [SSN3] is ___
3.14

Next sequence: PHHNQSPRNTYQCAMGK [RET1]
3

Param item: ENHNGQSISNENDVKPI [SWI3]
2.48

Try the sequence LYVDSESTSSTEEVEAL [MTW1]
3.14
